# ASSAYED_SYSTEM: MYLK (human)
# EXPERIMENT_NOTES: KINOMEscan competition binding
# MEASUREMENT_CONDITIONS: compound 1.0 µM
REPORTED_ENDPOINT: kinase still bound, per cent of control

Output measured kinase still bound, per cent of control for this item: CN(C)C/C=C/C(=O)Nc1cccc(C(=O)Nc2ccc(Nc3nccc(-c4cccnc4)n3)cc2)c1
100%

Output measured kinase still bound, per cent of control for this item: Cc1cc(NC(=O)c2cccc(NC(=O)/C=C/CN(C)C)c2)ccc1Nc1nccc(-c2cccnc2)n1
93%

Output measured kinase still bound, per cent of control for this item: CN(C)C/C=C/C(=O)Nc1cccc(C(=O)Nc2ccc(Nc3nccc(/C(C#N)=C4\Nc5ccccc5S4)n3)cc2)c1
100%

Output measured kinase still bound, per cent of control for this item: CN(C)C/C=C/C(=O)Nc1cccc(C(=O)Nc2ccc(Nc3nccc(-c4c(-c5ccccc5)nn5ccccc45)n3)cc2)c1
77%

====

# ASSAYED_SYSTEM: PKN2 (human) (UniProt Q16513)
# Sequence (Q16513 whole entry, looked up): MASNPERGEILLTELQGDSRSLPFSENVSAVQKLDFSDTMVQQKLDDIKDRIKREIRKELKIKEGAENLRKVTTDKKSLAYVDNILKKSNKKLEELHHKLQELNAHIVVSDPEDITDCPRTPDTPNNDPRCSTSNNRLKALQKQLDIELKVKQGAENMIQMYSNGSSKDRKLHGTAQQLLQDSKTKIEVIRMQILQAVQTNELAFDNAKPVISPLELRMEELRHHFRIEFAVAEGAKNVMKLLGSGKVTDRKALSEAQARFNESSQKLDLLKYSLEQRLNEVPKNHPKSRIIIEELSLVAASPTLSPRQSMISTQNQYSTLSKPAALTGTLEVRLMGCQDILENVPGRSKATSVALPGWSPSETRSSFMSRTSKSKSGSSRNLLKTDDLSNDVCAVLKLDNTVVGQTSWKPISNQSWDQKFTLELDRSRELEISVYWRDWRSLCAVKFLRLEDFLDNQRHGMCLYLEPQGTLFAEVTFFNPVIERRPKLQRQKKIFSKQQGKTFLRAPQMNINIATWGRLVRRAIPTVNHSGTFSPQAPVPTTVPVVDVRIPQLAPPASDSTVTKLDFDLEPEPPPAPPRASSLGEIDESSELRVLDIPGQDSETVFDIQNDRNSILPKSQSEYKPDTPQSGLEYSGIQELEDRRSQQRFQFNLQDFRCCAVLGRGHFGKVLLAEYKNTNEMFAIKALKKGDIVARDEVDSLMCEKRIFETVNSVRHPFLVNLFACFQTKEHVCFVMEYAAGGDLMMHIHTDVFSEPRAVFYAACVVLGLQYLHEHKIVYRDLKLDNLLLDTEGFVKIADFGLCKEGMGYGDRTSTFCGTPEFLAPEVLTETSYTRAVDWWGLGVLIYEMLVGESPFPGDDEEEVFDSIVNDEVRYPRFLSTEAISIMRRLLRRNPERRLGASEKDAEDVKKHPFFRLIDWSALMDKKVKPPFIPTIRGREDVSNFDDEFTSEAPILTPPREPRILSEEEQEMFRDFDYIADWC
# EXPERIMENT_NOTES: KINOMEscan competition binding
# MEASUREMENT_CONDITIONS: compound 1.0 µM
Exercise: for every item that follows, state its recorded kinase still bound, per cent of control.
Express the result in % but write the number alone.

GET kinase still bound, per cent of control where system = PKN2 (human) (UniProt Q16513) and item = CN(C)C/C=C/C(=O)Nc1cccc(C(=O)Nc2ccc(Nc3nccc(/C(C#N)=C4\Nc5ccccc5S4)n3)cc2)c1
87

GET kinase still bound, per cent of control where system = PKN2 (human) (UniProt Q16513) and item = CN(C)C/C=C/C(=O)Nc1cccc(C(=O)Nc2ccc(Nc3nccc(-c4c(-c5ccccc5)nn5ccccc45)n3)cc2)c1
100

GET kinase still bound, per cent of control where system = PKN2 (human) (UniProt Q16513) and item = CN(C)C/C=C/C(=O)Nc1cccc(C(=O)Nc2ccc(Nc3nccc(-c4cccnc4)n3)cc2)c1
33

GET kinase still bound, per cent of control where system = PKN2 (human) (UniProt Q16513) and item = Cc1cc(NC(=O)c2cccc(NC(=O)/C=C/CN(C)C)c2)ccc1Nc1nccc(-c2cccnc2)n1
58

====

Exercise: for every item that follows, state its recorded kinase still bound, per cent of control.
# ASSAYED_SYSTEM: UniProt:Q9P286
# Sequence (Q9P286 whole entry, looked up): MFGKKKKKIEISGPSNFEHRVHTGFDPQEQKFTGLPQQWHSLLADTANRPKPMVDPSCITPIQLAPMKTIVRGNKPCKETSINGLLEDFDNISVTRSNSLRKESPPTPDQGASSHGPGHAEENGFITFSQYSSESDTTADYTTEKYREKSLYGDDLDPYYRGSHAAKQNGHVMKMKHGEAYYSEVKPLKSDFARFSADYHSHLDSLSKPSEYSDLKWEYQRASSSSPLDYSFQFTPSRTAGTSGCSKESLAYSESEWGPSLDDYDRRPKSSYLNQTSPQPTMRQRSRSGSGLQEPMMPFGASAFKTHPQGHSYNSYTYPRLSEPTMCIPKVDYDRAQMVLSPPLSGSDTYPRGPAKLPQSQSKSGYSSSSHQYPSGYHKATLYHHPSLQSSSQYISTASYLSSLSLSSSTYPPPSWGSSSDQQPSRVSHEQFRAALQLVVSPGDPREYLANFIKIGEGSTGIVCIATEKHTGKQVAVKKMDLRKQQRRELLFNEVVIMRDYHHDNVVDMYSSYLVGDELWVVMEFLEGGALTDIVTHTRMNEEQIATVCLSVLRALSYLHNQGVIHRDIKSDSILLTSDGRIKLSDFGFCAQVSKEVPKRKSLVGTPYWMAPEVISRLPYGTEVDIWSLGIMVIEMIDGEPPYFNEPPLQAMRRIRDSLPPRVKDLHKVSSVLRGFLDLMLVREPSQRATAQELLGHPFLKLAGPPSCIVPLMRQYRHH
# EXPERIMENT_NOTES: KINOMEscan competition binding
# MEASUREMENT_CONDITIONS: compound 1.0 µM
Express the result in % but write the number alone.

Output measured kinase still bound, per cent of control for this item: CN(C)C/C=C/C(=O)Nc1cccc(C(=O)Nc2ccc(Nc3nccc(-c4c(-c5ccccc5)nn5ccccc45)n3)cc2)c1
92

Output measured kinase still bound, per cent of control for this item: CN(C)C/C=C/C(=O)Nc1cccc(C(=O)Nc2ccc(Nc3nccc(/C(C#N)=C4\Nc5ccccc5S4)n3)cc2)c1
69

Output measured kinase still bound, per cent of control for this item: CN(C)C/C=C/C(=O)Nc1cccc(C(=O)Nc2ccc(Nc3nccc(-c4cccnc4)n3)cc2)c1
75

Output measured kinase still bound, per cent of control for this item: Cc1cc(NC(=O)c2cccc(NC(=O)/C=C/CN(C)C)c2)ccc1Nc1nccc(-c2cccnc2)n1
88

====

Exercise: for every item that follows, state its recorded kinase still bound, per cent of control.
# ASSAYED_SYSTEM: TIE1 (human) (UniProt P35590)
# Sequence (P35590 whole entry, looked up): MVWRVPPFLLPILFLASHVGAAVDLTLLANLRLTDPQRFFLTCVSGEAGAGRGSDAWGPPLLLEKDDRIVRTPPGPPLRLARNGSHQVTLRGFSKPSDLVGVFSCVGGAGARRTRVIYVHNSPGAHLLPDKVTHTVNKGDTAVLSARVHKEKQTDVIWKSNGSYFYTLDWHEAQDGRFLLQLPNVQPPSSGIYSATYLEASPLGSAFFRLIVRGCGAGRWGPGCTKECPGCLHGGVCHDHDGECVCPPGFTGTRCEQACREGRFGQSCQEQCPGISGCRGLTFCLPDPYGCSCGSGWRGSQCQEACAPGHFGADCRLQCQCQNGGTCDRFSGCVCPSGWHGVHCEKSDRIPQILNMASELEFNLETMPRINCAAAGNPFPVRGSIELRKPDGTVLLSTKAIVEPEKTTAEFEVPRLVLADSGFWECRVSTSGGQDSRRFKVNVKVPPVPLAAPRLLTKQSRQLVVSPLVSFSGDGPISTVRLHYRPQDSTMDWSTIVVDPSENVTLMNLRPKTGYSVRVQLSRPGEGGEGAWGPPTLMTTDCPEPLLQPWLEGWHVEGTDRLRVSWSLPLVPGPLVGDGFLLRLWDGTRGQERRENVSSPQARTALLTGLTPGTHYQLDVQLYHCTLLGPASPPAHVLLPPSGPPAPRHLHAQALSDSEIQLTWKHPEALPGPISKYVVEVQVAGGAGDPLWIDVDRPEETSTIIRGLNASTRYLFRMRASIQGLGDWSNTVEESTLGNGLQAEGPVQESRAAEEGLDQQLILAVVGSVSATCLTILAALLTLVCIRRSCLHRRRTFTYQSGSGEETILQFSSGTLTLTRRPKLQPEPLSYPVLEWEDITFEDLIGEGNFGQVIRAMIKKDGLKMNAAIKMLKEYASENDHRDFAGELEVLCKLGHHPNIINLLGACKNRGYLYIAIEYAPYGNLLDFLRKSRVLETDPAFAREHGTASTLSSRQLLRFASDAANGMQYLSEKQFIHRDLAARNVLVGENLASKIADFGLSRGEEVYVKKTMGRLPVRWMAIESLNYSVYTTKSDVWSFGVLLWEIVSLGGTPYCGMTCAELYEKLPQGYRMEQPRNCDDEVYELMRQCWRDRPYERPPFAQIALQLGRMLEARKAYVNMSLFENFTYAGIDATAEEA
# EXPERIMENT_NOTES: KINOMEscan competition binding
# MEASUREMENT_CONDITIONS: compound 1.0 µM
Lab note: write values as number then unit, every time.

GET kinase still bound, per cent of control where system = TIE1 (human) (UniProt P35590) and item = CN(C)C/C=C/C(=O)Nc1cccc(C(=O)Nc2ccc(Nc3nccc(/C(C#N)=C4\Nc5ccccc5S4)n3)cc2)c1
70%

GET kinase still bound, per cent of control where system = TIE1 (human) (UniProt P35590) and item = CN(C)C/C=C/C(=O)Nc1cccc(C(=O)Nc2ccc(Nc3nccc(-c4c(-c5ccccc5)nn5ccccc45)n3)cc2)c1
23%

GET kinase still bound, per cent of control where system = TIE1 (human) (UniProt P35590) and item = CN(C)C/C=C/C(=O)Nc1cccc(C(=O)Nc2ccc(Nc3nccc(-c4cccnc4)n3)cc2)c1
100%

GET kinase still bound, per cent of control where system = TIE1 (human) (UniProt P35590) and item = Cc1cc(NC(=O)c2cccc(NC(=O)/C=C/CN(C)C)c2)ccc1Nc1nccc(-c2cccnc2)n1
91%
